experiment: Water content (Karl Fischer moisture meter); format: physicochemical; details: aconitate/citrate products, Table 4
Structures can show the parent of a compound that is named as a salt.
A collection of compounds and their measured Water content

compound	Water content
CCCCOC(=O)C=C(CC(=O)OCCCC)C(=O)OCCCC [Example 35, tributyl aconitate]	0.03%
CCCCOC(=O)C=C(CC(=O)OCCCC)C(=O)OCCCC [Example 29, tributyl aconitate]	0.03%
CCCCOC(=O)C=C(CC(=O)OCCCC)C(=O)OCCCC [Example 36, tributyl aconitate]	0.04%
CCCCOC(=O)C=C(CC(=O)OCCCC)C(=O)OCCCC [Comparative Example 3, tributyl aconitate, reference compound]	0.04%
CCCCOC(=O)C=C(CC(=O)OCCCC)C(=O)OCCCC [Example 33, tributyl aconitate]	0.04%
CCCCOC(=O)CC(O)(CC(=O)OCCCC)C(=O)OCCCC [Comparative Example 5, tributyl citrate, reference compound]	0.03%
CCCCOC(=O)C=C(CC(=O)OCCCC)C(=O)OCCCC [Comparative Example 1, tributyl aconitate, reference compound]	0.03%
